Tested on: promastigotes of Leishmania mexicana
assay: Leishmanicidal activity, MTT assay on promastigotes
Assay type: cell-based
condition-info: Leishmania mexicana, read-out: IC50 original values, x.1 (Mean)
For each entry below, report its pIC50 value.
Answers are plain numbers, as −log10 of the molar value.

COc1ccccc1C1[C@@]2(C(=O)N(c3ccccc3)N=C2C)[C@]12C(=O)N(c1ccccc1)N=C2C (relative stereo) :: 5.65
COC(=O)c1ccc(C2[C@@]3(C(=O)N(c4ccccc4)N=C3C)[C@]23C(=O)N(c2ccccc2)N=C3C)cc1 (relative stereo) :: 6.56
COc1ccc(C2[C@@]3(C(=O)N(c4ccccc4)N=C3C)[C@]23C(=O)N(c2ccccc2)N=C3C)cc1 (relative stereo) :: 5.83
CC1=NN(c2ccccc2)C(=O)[C@@]12C(c1ccc(F)cc1)[C@@]21C(=O)N(c2ccccc2)N=C1C (relative stereo) :: 6.24
CSc1ccc(C2[C@]3(C(=O)N(c4ccccc4)N=C3C)[C@@]23C(=O)N(c2ccccc2)N=C3C)cc1 (relative stereo) :: 6.38

Quick batch: pIC50 for everything below.
1. C[C@@H]1[C@H](O)[C@@H](C)/C=C/C=C/C=C/C=C/C=C/C=C/C=C/[C@H](O[C@@H]2O[C@H](C)[C@@H](O)[C@H](N)[C@@H]2O)C[C@@H]2O[C@](O)(C[C@@H](O)C[C@@H](O)[C@H](O)CC[C@@H](O)C[C@@H](O)CC(=O)O[C@H]1C)C[C@H](O)[C@H]2C(=O)O [Ampho B, Amphotericin B, reference compound]
2. CC1=NN(c2ccccc2)C(=O)[C@@]12C(c1cccc(F)c1)[C@@]21C(=O)N(c2ccccc2)N=C1C (relative stereo)
3. CC1=NN(c2ccccc2)C(=O)[C@@]12C(c1cccc([N+](=O)[O-])c1)[C@@]21C(=O)N(c2ccccc2)N=C1C (relative stereo)
4. CC1=NN(c2ccccc2)C(=O)[C@@]12C(c1ccccc1[N+](=O)[O-])[C@@]21C(=O)N(c2ccccc2)N=C1C (relative stereo)
5. CC1=NN(c2ccccc2)C(=O)[C@@]12C(c1ccc(OC(F)(F)F)cc1)[C@@]21C(=O)N(c2ccccc2)N=C1C (relative stereo)
6. CC1=NN(c2ccccc2)C(=O)[C@@]12C(c1ccc(C(F)(F)F)cc1)[C@@]21C(=O)N(c2ccccc2)N=C1C (relative stereo)
7. CC1=NN(c2ccccc2)C(=O)[C@@]12C(c1ccc([N+](=O)[O-])cc1)[C@@]21C(=O)N(c2ccccc2)N=C1C (relative stereo)
8. CC1=NN(c2ccccc2)C(=O)[C@@]12C(c1ccccc1)[C@@]21C(=O)N(c2ccccc2)N=C1C (relative stereo)

Result:
[6.76, 6.67, 6.83, 6.82, 6.72, 6.73, 6.53, 6.80]
